Documented apparent KD of MS2 coat protein across a set of sequences
- System: MS2 coat protein
- procedure-text: apparent KD of MS2 coat protein; designed switch direction (-1 OFF switch, 1 ON switch): 1; higher = weaker reporter binding
- particulars: input ligand: none

[
  {
    "residue-codes": "GCUAGUAUUAUUGCUAACAUGAGGAUCACCCAUGUAUGUUGGCAGGAUAUCGUUUGCAAAGCAAACGAGAAGGGCUAAACUAGC [Mat - Same State NG 3 - JL Mod - D13] (Eterna round: R96, puzzle: Same State NG 3)",
    "apparent KD of MS2 coat protein (nM)": 98.8
  },
  {
    "residue-codes": "GCUCGAUGAACGUCCUACAUGAGGAUCACCCAUGUUCGUGGGCAGGAUAUUUACAUGCAGAGUGUAGAGAAGGGCCCAUCGAGC [SameState NG3 #64] (Eterna round: R96, puzzle: Same State NG 3)",
    "apparent KD of MS2 coat protein (nM)": 165
  }
]

====

- Test system: MS2 coat protein
- procedure-text: apparent KD of MS2 coat protein; designed switch direction (-1 OFF switch, 1 ON switch): -1; higher = weaker reporter binding
- particulars: input ligand: none

[
  {
    "residue-codes": "GGUUGGCGAGGAUAUACAUGAGGAUCACCCAUGUGGUCCUGAGAUAGAAUAGCCCUUUGUAGAAGGCGCGGGUC [salish99_ex3_r4_044] (Eterna round: R97, puzzle: Exclusion 3)",
    "readout-unit": "nM",
    "apparent KD of MS2 coat protein": 166
  },
  {
    "residue-codes": "CGUUGCAGAGGAUAUACAUGAGGAUCACCCAUGUGAAAUUAUAGUGAGGAAAUGAAAAGUAGAAGGCUGUGACA [Mod of Mat 11 - Jieux - Exclusion 3] (Eterna round: R97, puzzle: Exclusion 3)",
    "readout-unit": "nM",
    "apparent KD of MS2 coat protein": 47.3
  },
  {
    "residue-codes": "GCCACCACAUGAGGAUCAAACAUGAGGAUCACCCAUGUAUAACAAGCUUUUUGCUCGUCUUAUAAAUAUGUGGUGGC [Electric Eye 4 - Jieux - Sensor, turn-off variant 1] (Eterna round: R97, puzzle: Sensor, turn-off variant 1)",
    "readout-unit": "nM",
    "apparent KD of MS2 coat protein": 15.3
  },
  {
    "residue-codes": "UCAACCAGAGGAUAUGCGCAUAGAUCAGACUUUGUUUCUGAACAUGAGGAUCACCCAUGUAGAAGGCUGUAACC [Ex2 #78] (Eterna round: R97, puzzle: Exclusion 2)",
    "readout-unit": "nM",
    "apparent KD of MS2 coat protein": 27.1
  }
]

====

- Tested on: K4 kissing-loop RNA reporter;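 also: bound reporter read as fluorescence of individual clusters on recovered sequencing chips by microscopy, with normalized cluster intensities fitted with a binding model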
- procedure-text: apparent KD of K4 kissing-loop reporter; higher = weaker reporter binding
- particulars: Eterna round: R107; input ligand: FMN 200 uM
# label = Criterion met if apparent KD of K4 kissing-loop reporter >= 300 nM else Criterion not met

[
  {
    "residue-codes": "UGAUCUCAGUGAUGUUGAGAUCAAACUGAUACCAGUCAAUUUAGUGACCCUUGGCAGCAGUAUACCAAGGGAUCUUAUGAGAUCA [Theo A SS t5]",
    "assigned-class": "Criterion not met"
  },
  {
    "residue-codes": "CUUGAUGUGUCGGCCGCCACUGGUAUAGGCGGACUAUAACGACAUGAGUGAUGUUCAUGUUCGUCUAGGACCGGGACACAUUGUA [Tryp B SS t4]",
    "assigned-class": "Criterion not met"
  },
  {
    "residue-codes": "AAAUAAAUCACGGCCGCCACUGCUAGAGUGAUGUUCUAUUAAUAAUUUCUAAAUUAUAUAAUACUCAGGACCGGGUGAUUUUUAA [JR_SSTryptoB_Sub020]",
    "assigned-class": "Criterion met"
  },
  {
    "residue-codes": "UUCUUGAUGGAAACAUCGAGGAUUACUGAUACCAGUAUCGAUAGAUACCCUUGGCAGCAGUAUCGGUGAUCACGAGUGAUGUUCG [Ex Theophylline A K4 11]",
    "assigned-class": "Criterion met"
  },
  {
    "residue-codes": "CCUUCCCUUGAUAGUGAUGUUAUCAAGGACAAGGAUAUCAUCUCAAUGAGAAGGUGUCCUUGAUAACAUGGAGGUCUGAAACAGA [Omei KL FMN A Exc C v2]",
    "assigned-class": "Criterion not met"
  },
  {
    "residue-codes": "CGCAGUGAUGUUGCGAGUAGCUACAGGGAAGGAGCGUGCUAGAGCACAGGUAGGUCGCCCUCGGGCAGUGAUGUUGCCAAAGGUU [Exclusion ARginine A GF 16]",
    "assigned-class": "Criterion not met"
  },
  {
    "residue-codes": "UUUUUAUUCAGUGAUGUUGAAUUUAUAUCAGAGGAUAUGCAUAAAAGCAGAAGGCUGAAAUACUAUACUUUAAUAAAUUAUAUUU [JR_SSFMNA_Sub017]",
    "assigned-class": "Criterion not met"
  },
  {
    "residue-codes": "UGGAGUUGACGAAAAGUCAACUCCUGGGAAGGAGCGGACGAAAGUCCAGGUAGGUCGCCCACUACCAGUGAUGUUGGUACUUCAA",
    "assigned-class": "Criterion not met"
  },
  {
    "residue-codes": "GGUAGCAUGGCGGCCGCCACUAAGAGAGUGAUGUUCUCUUAGUUUUUUGAUAUAUUAUCAAUUCUUAGGACCGGGCCAUGCUACC",
    "assigned-class": "Criterion not met"
  },
  {
    "residue-codes": "GUCCACACUGCAGGAUAUGGAGGUAUAGCGAGGGAGUGUGGAAGCACACCUCUGGCAGUGAUGUUGCCAGAAGGGCGGUGCGGCG [Masodionra]",
    "assigned-class": "Criterion not met"
  }
]

Attribution: the supplement of paper PMC9170038
